- System: SNB-75 CNS
- ASSAY NAME: NCI-60 one-dose screen, 48 h (100 = growth as untreated, 0 = no growth, -100 = all killed)
- CONDITION LABEL: 10 µM unless noted
This is part of a sample that, as a whole, favours compounds with a hit. Of some 83,000 tested, about 20% had one in any assay.
# if measured growth < 80%: 1 (yes)  # else: 0 (no)

Take a look at these entries with their results.
MOLECULE	GROUP
CC(=O)OC1CCC2(C)C(=CCC3C4CC(CN5CC5)C(=O)C4(C)CCC32)C1 (configuration not stated)	0 (no)
O=S(=O)(c1ccc(Cl)cc1)C(Cl)(Cl)Cl	1 (yes)

# TODO verify growth < 80% strictly for this molecule: `COc1cc(C2(C#N)CCN(C)CC2)cc(OC)c1OC`
0 (no)

# TODO verify growth < 80% strictly for this molecule: `C[C@@H]1CC[C@@H]2[C@@H]1[C@H](OC(=O)/C=C/C1CCCCC1)[C@]1(C3CCCCC3)C[C@@H](OC(=O)CO)[C@@]2(C)O1`
1 (yes)

# TODO verify growth < 80% strictly for this molecule: `C[C@]12C[C@H](O)[C@H]3[C@@H](CCC4=CC(=O)CC[C@@]43C)[C@@H]1CC[C@@H]2O`
0 (no)

# TODO verify growth < 80% strictly for this molecule: `NCCc1cc(O)c(O)cc1O`
0 (no)

# TODO verify growth < 80% strictly for this molecule: CC12CCC3C(CC=C4CC(O)CCC43C)C1C/C(=C\N1CCOCC1)C2=O (configuration not stated)
0 (no)

* * *

Measured growth accompanies every entry in the list below.
- Test system: HL-60(TB) leukemia
- ASSAY NAME: NCI-60 one-dose screen, 48 h (100 = growth as untreated, 0 = no growth, -100 = all killed)
- CONDITION LABEL: 10 µM unless noted
About 83,000 compounds went through this panel and 20% of them were active in at least one assay; those are over-represented in the sample as a whole.
State just the number; it will be interpreted in %.

Sample answers from the record:
COMPOUND	ASSAY VALUE
CCCCCCCCCCC(CN(CC)CC)C(O)c1ccccc1 (stereo not drawn)	44.7
CCN(CC)CCCOc1ccc2ncnc(Nc3ccc(Oc4cccc(C(F)(F)F)c4)c(Cl)c3)c2c1	-45.2
Fc1ccc(Cn2cc(CSc3nc4ccccc4o3)nn2)cc1	104
Clc1ccc([I+]c2ccc(Cl)cc2Cl)c(Cl)c1	-38.3
CN(C)c1cnccn1	90.3
CN1CCN(C(=O)OCc2nc3c(N4CCOCC4)nc(Cl)nc3n2C)CC1	-53.4
CC(=O)[C@@H]1CC[C@]2(C(=O)n3ccnc3)CC[C@]3(C)[C@H](CC[C@@H]4[C@@]5(C)Cc6c([nH]c7ccccc67)C(C)(C)[C@@H]5CC[C@]43C)[C@@H]12	90.9
O=S(=O)(NCC[C@@H]1C[C@H]1c1ccc2ccccc2c1)c1ccc(C(F)(F)F)cc1	96.5

Item under review: `Cc1cc(N(CCOS(C)(=O)=O)CCOS(C)(=O)=O)ccc1C=Nc1ccc(-c2nc(Cc3ccccc3)sc2C)cc1` . Reported growth?
4.95

Item under review: `CCn1c(SCC(=O)N/N=C(\C)c2ccc(Cl)cc2)nc2c1c(=O)n(C)c(=O)n2C` . Reported growth?
101

Item under review: `Cc1nnc2c(Cc3ccccc3)nc3ccccc3n12` . Reported growth?
95.7

Item under review: CCC(C)(O)Cc1ccc(Cl)cc1 (stereo not drawn) . Reported growth?
96

Item under review: `COCCOc1cc2ncnc(N3CCN(c4ncc(S(=O)(=O)N5CCCCC5)cn4)CC3)c2cc1OCCOC` . Reported growth?
100

Item under review: CCCC(O)Cn1ncc(C(=O)OCC)c1NC(=O)NCc1cccc(F)c1 (stereo not drawn) . Reported growth?
59.2

Item under review: `C=C(C)c1ccc(/C=N/NC(N)=S)cc1` . Reported growth?
147

Item under review: `O=C(CN1C(=O)/C(=C\c2ccc(Cl)cc2)SC1=S)Nc1ncc(Cc2ccc(Cl)cc2)s1` . Reported growth?
102

Item under review: `O=c1c2cccc3c(NC4CCCCC4)ccc(c32)c2nc3ccccc3n12` . Reported growth?
62.6

Item under review: `CN1CCN(c2cc(F)c(NC3=C(Cl)C(=O)c4ncccc4C3=O)c(F)c2)CC1` . Reported growth?
-26.4

Item under review: NC(CC(N)C(=O)O)C(=O)O (stereo not drawn) . Reported growth?
110

* * *

Measured growth accompanies every entry in the list below.
- Tested on: HL-60(TB) leukemia
- ASSAY NAME: NCI-60 one-dose screen, 48 h (100 = growth as untreated, 0 = no growth, -100 = all killed)
- CONDITION LABEL: 10 µM unless noted
This is part of a sample that, as a whole, favours compounds with a hit. Of some 83,000 tested, about 20% had one in any assay.
State just the number; it will be interpreted in %.

Sample answers from the record:
COMPOUND	UNIT STRING	ASSAY VALUE
COC12C=C/C(=C(/C(=O)OCc3ccncn3)C(=O)CCCCCCCCC3(OC)C=C/C(=C(/C(=O)OCc4ccncn4)C(=O)CCCCCCCC1)O3)O2	%	-17.1
COc1cc(C(=O)c2cnc(-c3c[nH]c4cccc(C)c34)[nH]2)cc(OC)c1OC	%	-14.9
O=C(O)c1cccc([N+](=O)[O-])c1	%	107
COc1cc(C2CC(c3ccc(N(C)C)cc3)=NN2C(C)=O)cc(OC)c1OC (stereo unspecified)	%	-3.98
CCOC(=O)c1sc(-c2ccc(OS(=O)(=O)C[C@]34CCC(CC3=O)C4(C)C)c(C=O)c2)nc1C	%	-5
C=CC(=O)Nc1ccc(Nc2nccc(-c3ccc(N4CCCC4)c(C#N)c3)n2)cc1	%	-71.8
O=C(C[n+]1ccn(CC(OCc2ccc(Cl)cc2Cl)c2ccc(Cl)cc2Cl)c1)c1ccc(F)cc1 (stereo unspecified)	%	-51.8
COc1ccc(/C=C2\CCC3C(CCCC34OCCO4)C2=O)cc1 (stereo unspecified)	%	78.3
NS(=O)(=O)c1cnccc1Sc1ccncc1S(N)(=O)=O	%	82.5
CCCCCCCCCCCCCCCCOCCCOP(=O)(O)C1CCCN(O)C1=O (stereo unspecified)	%	-13.6

Item under review: `COc1cc(C(=O)c2cnc(-c3ccc4cc[nH]c4c3)[nH]2)cc(OC)c1OC` . Reported growth?
-1.01

Item under review: `COc1cc(-c2nc(SC(C)C)nc(Nc3ccccc3C)c2C#N)cc(OC)c1OC` . Reported growth?
103

Item under review: `COc1cc(OC)c(/C=C/c2cc[n+](C)c3ccccc23)c(OC)c1` . Reported growth?
-25.6

Item under review: `CC(=O)Nc1ccc(-c2ccc3c(c2)NC(=O)/C3=C\c2ccc[nH]2)cc1` . Reported growth?
95.5

Item under review: `O=C1C(=O)c2ccccc2C(O)=C1CCCc1ccc(C2CCCCC2)cc1` . Reported growth?
30.6

* * *

- Test system: HOP-62 NSCLC
- ASSAY NAME: NCI-60 one-dose screen, 48 h
- CONDITION LABEL: 10 µM unless noted
Compounds without any hit were thinned out: in the full panel of roughly 83,000, 20% have a hit. Calls of active or inactive are those of the source. Rule for the calls: active = growth percent below 10; inactive = the rest.
Assign a class; possible classes are active, inactive

Take a look at these entries with their results.
COMPOUND	SYSTEM NAME	GROUP
CC(CC(C#N)(c1ccccc1)c1ccccc1)N1CCOCC1 (centres undefined)	HOP-62 NSCLC	inactive
CCCCN(CCCC)CC(O)c1ccccc1 (centres undefined)	HOP-62 NSCLC	inactive
CCN1CC2(CN(CC)C1=S)C(=O)NC(=O)NC2=O	HOP-62 NSCLC	inactive
N#C[Se]CCCNS(=O)(=O)C1CC2C=CC1C2 (centres undefined)	HOP-62 NSCLC	active
Cc1cc(NC(=O)NCCOc2ccc(N3C(N)=NC(N)=NC3(C)C)cc2Cl)ccc1S(=O)(=O)F	HOP-62 NSCLC	inactive
CCOC(=O)/C=C(\C)Nc1ccc(N/C(C)=C/C(=O)OCC)c2c1Oc1ccccc1O2	HOP-62 NSCLC	inactive
CO[C@@H]1[C@H](OC(=O)NC(=O)CCl)CC[C@]2(CO2)[C@H]1[C@@]1(C)O[C@@H]1CC=C(C)C	HOP-62 NSCLC	inactive
C=C=[CH][Sn]([c]1ccccc1)([c]1ccccc1)[c]1ccccc1	HOP-62 NSCLC	active

// return assay outcome for CC(=O)OC1CCC2(C)C(=CCC3C4CC(CN5CC5)C(=O)C4(C)CCC32)C1 (centres undefined)
inactive

* * *

- Test system: HT29 colon
- ASSAY NAME: NCI-60 one-dose screen, 48 h
- CONDITION LABEL: 10 µM unless noted
About 83,000 compounds went through this panel and 20% of them were active in at least one assay; those are over-represented in the sample as a whole. The source made the active and inactive calls. Rule for the calls: active = growth percent below 10; inactive = the rest.
Assign a class; possible classes are active, inactive

Take a look at these entries with their results.
COMPOUND	GROUP
C1CNC2CCCC2C1 (stereo not given)	inactive
O=C(N/N=C/c1ccc([N+](=O)[O-])o1)c1cc([N+](=O)[O-])cc([N+](=O)[O-])c1O	inactive
Cc1cc(NC(=O)/C=C/c2ccc([N+](=O)[O-])cc2)ccc1S(=O)(=O)F	inactive
CC12CCC3C(CC=C4CC(O)CCC43C)C1C/C(=C\N1CCOCC1)C2=O (stereo not given)	inactive
COc1ccc(CN2CCN(Cc3ccccc3)CC2)c(O)c1	inactive
CC(C)(C)[Si](C)(C)OC1[C@@H](O[Si](C)(C)C(C)(C)C)[C@@H](CNC(=O)NC(=O)CF)O[C@H]1n1cnc2c(NC(=O)Nc3ccccc3)ncnc21 (stereo not given in full)	inactive
OC1(c2ccc(Cl)cc2Cl)c2ccccc2C2=NCCN21 (stereo not given)	inactive
Cc1cc([N+](=O)[O-])c(Cl)cc1NS(=O)(=O)c1ccccc1	inactive

// return assay outcome for `CN1CC2CCC(C1)C2=O`
inactive

// return assay outcome for CNc1ccc(C(=O)CC(O)CCC(C)C2OC(=O)CC(O)CC(=O)CC(O)CC(O)CC(O)CC(O)CC3(O)CC(O)C(C(=O)OC)C(CC(O[C@@H]4O[C@H](C)[C@@H](O)[C@H](N)[C@@H]4O)/C=C/C=C/C=C/C=C/C=C/C=C/C=C/C2C)O3)cc1 (stereo not given in full)
active

// return assay outcome for `O=C(N/N=C/c1ccc(N(CCCl)CCCl)cc1)c1cc(=O)[nH]c(=O)[nH]1`
inactive

// return assay outcome for `CCCCn1cc(C(=O)/C(C#N)=C/c2cc3ccccc3nc2Cl)c2cc(OC)ccc21`
inactive

// return assay outcome for `CC1(C)N=C(N)N=C(N)N1c1ccc(CCC(=O)Nc2cccc(S(=O)(=O)F)c2)cc1`
inactive

// return assay outcome for `CC[CH2][Pb]([CH2]CC)([CH2]CC)[O]C(=O)C(F)(F)F`
active

// return assay outcome for `COC(C)(C)CCC[C@H](C)C/C=C/C(C)=C/C(=O)OC(C)C`
inactive
